test system: U2OS; assay: Multiplex assay against U2OS; format: toxicity, cell-based; settings: human, 48 h, 10 µM, compound concentration 10 uM, replicate 1
The label is true for Population Healthy Nuclei (%) below 40% and false for Population Healthy Nuclei (%) equal to or exceeding 40%.

The examples below pair each entry with its known result.
{"Compound": "Cn1cc(-c2[nH]c3cc(NC(=O)[C@H](N)C4CCCCC4)cc4c3c2C=NNC4=O)cn1", "Qualitative Label": "true"}
{"Compound": "CC(C)NCC(O)COc1ccc(CCOCC2CC2)cc1.Cl (stereo not given) [BETAXOLOL HYDROCHLORIDE]", "Qualitative Label": "false"}

Please let me know if COc1cc2nccc(Oc3ccc(NC(=O)Nc4cc(C)on4)c(Cl)c3)c2cc1OC.O shows Population Healthy Nuclei (%) below 40%.
true

is_below(Population Healthy Nuclei (%), 40%) for CN1CCN(CCOc2cc(OC3CCOCC3)c3c(Nc4c(Cl)ccc5c4OCO5)ncnc3c2)CC1 ?
true

Answer whether the compound C=CC(=O)Nc1cccc(C(=O)Nc2ccc(Nc3cc(-c4[nH]c(SC)nc4C)ccn3)cc2)c1 has Population Healthy Nuclei (%) strictly less than 40%
false

* * *

test system: HEK-293T; assay: Multiplex assay against HEK293T; assay type: toxicity, cell-based; settings: human, 24 h, 10 µM, compound concentration 10 uM, replicate 2
# Population Membrane Permeable-Phenotype (%) annotations
Write the number in % without appending the unit.

Would you please look over these solved cases?
{"Molecule": "CC[C@H](C)C(=O)O[C@H]1C[C@@H](C)C=C2C=C[C@H](C)[C@H](CC[C@@H]3C[C@@H](O)CC(=O)O3)[C@H]21", "Measured Value": 6}
{"Molecule": "C[C@@H](NCCCc1cccc(C(F)(F)F)c1)c1cccc2ccccc12.Cl [CINACALCET HYDROCHLORIDE]", "Measured Value": 6}
{"Molecule": "C=CC(=O)Nc1cc2c(Nc3ccc(F)c(Cl)c3)ncnc2cc1OCCCN1CCOCC1.Cl.Cl [CANERTINIB DIHYDROCHLORIDE]", "Measured Value": 3}

Output Population Membrane Permeable-Phenotype (%) of CC(C)NCC(O)COc1ccc(CCOCC2CC2)cc1.Cl (stereo not drawn) [BETAXOLOL HYDROCHLORIDE]
3

Return Population Membrane Permeable-Phenotype (%) (reported value) for this molecule: COc1ncc(-c2ccc3nccc(-c4ccnnc4)c3c2)cc1NS(=O)(=O)c1ccc(F)cc1F
3

Specify reported Population Membrane Permeable-Phenotype (%) for the molecule shown: C=CC(=O)Nc1cccc(C(=O)Nc2ccc(Nc3cc(-c4[nH]c(SC)nc4C)ccn3)cc2)c1
19

Entry O=C1NCN(c2ccccc2)C12CCN(CCCOc1ccc(F)cc1)CC2 [SPIRAMIDE] needs its Population Membrane Permeable-Phenotype (%) filled in; supply it.
2

Provide one value: measured Population Membrane Permeable-Phenotype (%) of Cc1nc(-c2cn3c(n2)-c2ccc(-c4cnn(C(C)(C)C(N)=O)c4)cc2OCC3)n(C(C)C)n1
7

* * *

system: U2OS; assay: Multiplex assay against U2OS; format: toxicity, cell-based; conditions: human, 12 h, 1 µM, compound concentration 1 uM, replicate 1
Quick list: Population Hoechst High Intensity Objects (%) per entry.
Answer format reminder: number followed by unit.

# assay system U2OS: give Population Hoechst High Intensity Objects (%) of c1cn2cc(-c3ccc4cn[nH]c4c3)nc(Nc3ccc(N4CCOCC4)cc3)c2n1 [ENTOSPLETINIB]
4%

Enter measured Population Hoechst High Intensity Objects (%), system U2OS, for the compound shown: CC[C@H](C)C(=O)O[C@H]1C[C@@H](C)C=C2C=C[C@H](C)[C@H](CC[C@@H]3C[C@@H](O)CC(=O)O3)[C@H]21 [LOVASTATIN]
12%

GET Population Hoechst High Intensity Objects (%) where system = U2OS and item = C[C@@H](NCCCc1cccc(C(F)(F)F)c1)c1cccc2ccccc12.Cl [CINACALCET HYDROCHLORIDE]
5%

Provide Population Hoechst High Intensity Objects (%), recorded with U2OS, of Nc1c(C(=O)NCc2ccc(C(=O)NCCCC3CCCCC3)cc2)cnn1-c1ccccc1 [SR-318]
3%
